Taken from paper PMC7383509.

assay type: in vivo, human; conditions: human, plasma, iv, 0.5 mg, Vz, arithmetic mean ± SD, mild hepatic impairment, single 0.5 mg IV
recorded_endpoint: Vd
Write the figure, then the unit, nothing else.

What Vd value was documented for this compound, COc1ccsc1CNCC[C@@]1(c2ccccn2)CCOC2(CCCC2)C1 [Oliceridine] ?
181 L

* * *

type: in vivo, human; details: human, plasma, iv, 0.5 mg, t½, geometric mean (%CVb), severe hepatic impairment, single 0.5 mg IV
recorded_endpoint: half-life (h)
Your answer is read as h, so omit the unit and give the number.

What half-life value was documented for this compound, COc1ccsc1CNCC[C@@]1(c2ccccn2)CCOC2(CCCC2)C1 ?
5.8

* * *

format: in vivo, human; conditions: human, plasma, iv, 0.5 mg, Vz, geometric mean (%CVb), ESRD subjects, single 0.5 mg IV
recorded_endpoint: Vd

What Vd value was documented for this compound, COc1ccsc1CNCC[C@@]1(c2ccccn2)CCOC2(CCCC2)C1 ?
212 L

* * *

format: in vivo, human; settings: human, plasma, iv, 0.5 mg, CL, arithmetic mean ± SD, mild hepatic impairment, single 0.5 mg IV
recorded_endpoint: clearance

What clearance value was documented for this compound, COc1ccsc1CNCC[C@@]1(c2ccccn2)CCOC2(CCCC2)C1 [Oliceridine] ?
807 mL/min

* * *

assay type: in vivo, human; conditions: human, plasma, iv, 0.5 mg, AUC0‐t, arithmetic mean (SD), ESRD subjects, single 0.5 mg IV; dose-normalized to 1 mg
recorded_endpoint: AUC (ng·h/mL)
Your answer is read as ng·h/mL, so omit the unit and give the number.

What AUC value was documented for this molecule, COc1ccsc1CNCC[C@@]1(c2ccccn2)CCOC2(CCCC2)C1 ?
19.7

* * *

type: in vivo, human; conditions: human, plasma, iv, 0.5 mg, CL, geometric mean (%CVb), mild hepatic impairment, single 0.5 mg IV
recorded_endpoint: clearance (mL/min)
Your answer is read as mL/min, so omit the unit and give the number.

What clearance value was documented for this compound, COc1ccsc1CNCC[C@@]1(c2ccccn2)CCOC2(CCCC2)C1 ?
742

* * *

assay type: in vivo, human; conditions: human, plasma, iv, 0.5 mg, CL, arithmetic mean (SD), ESRD subjects, single 0.5 mg IV
recorded_endpoint: clearance
Write the figure, then the unit, nothing else.

What clearance value was documented for this molecule, COc1ccsc1CNCC[C@@]1(c2ccccn2)CCOC2(CCCC2)C1 [Oliceridine] ?
847 mL/min

* * *

format: in vivo, human; conditions: human, plasma, iv, 0.5 mg, Cmax, geometric mean (%CVb), moderate hepatic impairment, single 0.5 mg IV; dose-normalized to 1 mg
recorded_endpoint: Cmax
Write the figure, then the unit, nothing else.

What Cmax value was documented for this molecule, COc1ccsc1CNCC[C@@]1(c2ccccn2)CCOC2(CCCC2)C1 ?
41.9 ng/mL

* * *

type: in vivo, human; conditions: human, plasma, iv, 0.5 mg, Cmax, geometric mean (%CVb), severe hepatic impairment, single 0.5 mg IV; dose-normalized to 1 mg
recorded_endpoint: Cmax (ng/mL)
Your answer is read as ng/mL, so omit the unit and give the number.

What Cmax value was documented for this compound, COc1ccsc1CNCC[C@@]1(c2ccccn2)CCOC2(CCCC2)C1 ?
8.4

* * *

assay type: in vivo, human; conditions: human, plasma, iv, 0.5 mg, Cmax, arithmetic mean ± SD, mild hepatic impairment, single 0.5 mg IV; dose-normalized to 1 mg
recorded_endpoint: Cmax (ng/mL)
Your answer is read as ng/mL, so omit the unit and give the number.

What Cmax value was documented for this compound, COc1ccsc1CNCC[C@@]1(c2ccccn2)CCOC2(CCCC2)C1 ?
62.3
